Cited source for all entries: BindingDB's records for PubMed 34792334

Molecular target: UniProt:Q9C0B1
Sequence (Q9C0B1 whole entry): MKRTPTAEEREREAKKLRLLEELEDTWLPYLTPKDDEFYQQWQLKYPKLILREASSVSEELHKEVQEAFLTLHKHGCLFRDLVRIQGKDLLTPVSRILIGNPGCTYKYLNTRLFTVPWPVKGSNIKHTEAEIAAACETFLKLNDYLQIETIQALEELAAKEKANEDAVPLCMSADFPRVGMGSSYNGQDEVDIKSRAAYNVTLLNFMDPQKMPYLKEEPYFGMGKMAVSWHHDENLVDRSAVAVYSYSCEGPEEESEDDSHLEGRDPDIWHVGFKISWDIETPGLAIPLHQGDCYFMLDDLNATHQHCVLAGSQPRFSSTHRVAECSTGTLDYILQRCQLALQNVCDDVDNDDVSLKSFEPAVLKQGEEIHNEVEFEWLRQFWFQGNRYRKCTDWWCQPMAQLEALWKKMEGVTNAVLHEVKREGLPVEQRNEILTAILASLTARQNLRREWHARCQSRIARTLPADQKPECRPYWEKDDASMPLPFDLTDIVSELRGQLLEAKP
Assay: Inhibition of FTO (unknown origin) demethylation activity using m6A7-Broccoli RNA as substrate incubated for 3 mins under shaking condition and measured after 2 hrs by fluorescence based analysis
pIC50: −log10 of the molar value.
endpoint: pIC50

givenSmiles	endpoint	resultValue
Nc1sc(-c2cncnc2)c2c1C(=O)c1ccccc1-2	pIC50	5.92

###

Target: UniProt Q9C0B1
Assay: Inhibition of FTO (unknown origin) demethylation activity
pIC50: −log10 of the molar value.
endpoint: pIC50

givenSmiles	assayedSystem	resultValue
CCOc1nc2ccccc2nc1C(=O)Nc1ccc(N(CC)CC)cc1	UniProt Q9C0B1	5.92
